- assayed target: FcγRIIIA expressed on cells (UniProt P08637 17-254)
- Sequence (P08637 17-254): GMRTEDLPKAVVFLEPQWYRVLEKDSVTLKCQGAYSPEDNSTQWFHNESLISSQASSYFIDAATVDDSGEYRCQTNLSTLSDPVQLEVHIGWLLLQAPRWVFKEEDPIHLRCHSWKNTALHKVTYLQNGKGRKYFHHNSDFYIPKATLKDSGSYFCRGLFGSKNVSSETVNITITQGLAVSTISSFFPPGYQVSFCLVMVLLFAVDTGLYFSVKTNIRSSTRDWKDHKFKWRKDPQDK
- experiment notes: FACS
pEC50: −log10 of the molar value.
measure name: pEC50

(a) V273F (protein) APELLGGPSVFLFPPKPKDTLMISRTPEVTCVVVDVSHEDPEFKFNWYVDGVEVHNAKTKPREEQYNSTYRVVSVLTVLHQDWLNGKEYKCKVSNKALPAPIEKTISKAK
(b) V305K (protein) APELLGGPSVFLFPPKPKDTLMISRTPEVTCVVVDVSHEDPEVKFNWYVDGVEVHNAKTKPREEQYNSTYRVVSKLTVLHQDWLNGKEYKCKVSNKALPAPIEKTISKAK
(c) V273C (protein) APELLGGPSVFLFPPKPKDTLMISRTPEVTCVVVDVSHEDPECKFNWYVDGVEVHNAKTKPREEQYNSTYRVVSVLTVLHQDWLNGKEYKCKVSNKALPAPIEKTISKAK
// sort entries: pEC50, high to low Write the labels in rank order as requested.
b, c, a
(b: 9.29, c: 8.92, a: 8.70)
